assay: Mouse pharmacokinetics testing; assay type: in vivo, CD1 female mice; conditions: mouse; PO (10 mg/kg), CD1 female mice, plasma; read-out: Tmax

- Molecule: "C[C@H]1CC[C@H](c2ccc3scnc3c2)N(C(=O)C(=O)Nc2cnc(N)c3c2cnn3C)C1 [Compound P3b]"
  Tmax / min: 15

###

test: Mouse pharmacokinetics testing; format: in vivo, CD1 female mice; settings: female, CD1, mouse, in vivo, iv, 2 mg/kg
We label by threshold. Values of AUC(0-t) strictly beneath 900 ng·h/mL are 1.0. Values of 900 ng·h/mL and up are 0.0.

- Compound: "CN(C(=O)C(=O)Nc1cnc(N)c2c1cnn2C)[C@@H]1COc2cc(C(F)(F)F)ccc21 [Compound P2a]"
  Class: 1.0
- Compound: "CN(C(=O)C(=O)Nc1cnc(N)c2c1cnn2C)C1COc2cc(OC(F)(F)F)ccc21 (centres unmarked) [Compound P30]"
  Class: 0.0
- Compound: "[2H]C([2H])([2H])N(C(=O)C(=O)Nc1cnc(N)c2c1cnn2C)[C@@H]1COc2cc(SC(F)(F)F)ccc21 [Compound P32]"
  Class: 1.0
- Compound: "CN(C(=O)C(=O)Nc1cnc(N)c2c1cnn2C)[C@@H]1COCc2nc(C(F)(F)F)ccc21 [Compound P9a]"
  Class: 0.0

###

Listed next: entries and their corresponding AUC(0-t).
experiment: Mouse pharmacokinetics testing; format: in vivo, CD1 female mice; details: female, CD1, mouse, in vivo, po, 10 mg/kg
Observed Property: AUC(0-t)

- Compound: "[2H]C([2H])([2H])N(C(=O)C(=O)Nc1cnc(N)c2c1cnn2C)[C@@H]1COc2cc(C(F)(F)F)ccc21 [Compound P22]"
  Endpoint Value: "2660 ng·h/mL"
- Compound: "CN(C(=O)C(=O)Nc1cnc(N)c2c1cnn2C)C1COc2cc(OC(F)(F)F)ccc21 (centres unmarked) [Compound P30]"
  Endpoint Value: "5150 ng·h/mL"
- Compound: "CN(C(=O)C(=O)Nc1cnc(N)c2c1cnn2C)[C@@H]1COCc2nc(C(F)(F)F)ccc21 [Compound P9a]"
  Endpoint Value: "15400 ng·h/mL"
- Compound: "[2H]C([2H])([2H])N(C(=O)C(=O)Nc1cnc(N)c2c1cnn2C)[C@@H]1COc2cc(SC(F)(F)F)ccc21 [Compound P32]"
  Endpoint Value: "2580 ng·h/mL"
- Compound: "CN(C(=O)C(=O)Nc1cnc(N)c2c1cnn2C)[C@@H]1COc2cc(C(F)(F)F)ccc21 [Compound P2a]"
  Endpoint Value: "1380 ng·h/mL"

###

experiment: Mouse pharmacokinetics testing; assay type: in vivo, CD1 female mice; conditions: female, CD1, mouse, in vivo, iv, 2 mg/kg

- Compound: "CN(C(=O)C(=O)Nc1cnc(N)c2c1cnn2C)[C@@H]1COCc2nc(C(F)(F)F)ccc21"
  C0, ng/mL: 5650
- Compound: "CN(C(=O)C(=O)Nc1cnc(N)c2c1cnn2C)C1COc2cc(OC(F)(F)F)ccc21 (centres unmarked)"
  C0, ng/mL: 1070
- Compound: "[2H]C([2H])([2H])N(C(=O)C(=O)Nc1cnc(N)c2c1cnn2C)[C@@H]1COc2cc(C(F)(F)F)ccc21"
  C0, ng/mL: 1140
- Compound: "CN(C(=O)C(=O)Nc1cnc(N)c2c1cnn2C)[C@@H]1COc2cc(C(F)(F)F)ccc21"
  C0, ng/mL: 345
- Compound: "[2H]C([2H])([2H])N(C(=O)C(=O)Nc1cnc(N)c2c1cnn2C)[C@@H]1COc2cc(SC(F)(F)F)ccc21"
  C0, ng/mL: 733

###

experiment: in vitro; conditions: dog, MDCK-MDR1, pH 7.4

- Compound: "CN(C(=O)C(=O)Nc1cnc(N)c2c1cnn2C)C1COc2cc(S(=O)(=O)C(F)(F)F)ccc21 (stereo not drawn) [Compound P33]"
  Papp B→A, ×10⁻⁶ cm/s: 28.8
- Compound: "CN(C(=O)C(=O)Nc1cnc(N)c2c1cnn2C)[C@@H]1COc2cc(SC(F)(F)F)ccc21 [Compound P29a]"
  Papp B→A, ×10⁻⁶ cm/s: 13.3
- Compound: "CCN(C(=O)C(=O)Nc1cnc(N)c2c1cnn2C)[C@@H]1COCc2nc(C(F)(F)F)ccc21 [Compound P28]"
  Papp B→A, ×10⁻⁶ cm/s: 34
- Compound: "[2H]C([2H])([2H])N(C(=O)C(=O)Nc1cnc(N)c2c1cnn2C)[C@@H]1COc2cc(SC(F)(F)F)ccc21 [Compound P32]"
  Papp B→A, ×10⁻⁶ cm/s: 13.5
- Compound: "[2H]C([2H])([2H])N(C(=O)C(=O)Nc1cnc(N)c2c1cnn2C)[C@@H]1COc2cc(C(F)(F)F)ccc21 [Compound P22]"
  Papp B→A, ×10⁻⁶ cm/s: 20.6
- Compound: "CN(C(=O)C(=O)Nc1cnc(N)c2c1cnn2C)[C@@H]1COc2cc(C(F)(F)F)ccc21 [Compound P2a]"
  Papp B→A, ×10⁻⁶ cm/s: 22.1

###

assay: Mouse pharmacokinetics testing; format: in vivo, CD1 female mice; conditions: mouse, in vivo, iv, 2 mg/kg
Observed Property: clearance (mL/min/kg)

- Compound: "CCN(C(=O)C(=O)Nc1cnc(N)c2c1cnn2C)[C@@H]1COc2cc(C(F)(F)F)ccc21 [Compound P19a]"
  Observed Property: "clearance"
  Endpoint Value: 21.5

###

test system: SDMA/HCT116-MTAPdel; assay: In-cell arginine symmetric dimethylation inhibition (In-cell western, ICW), MTAP-deficient cells; format: cell-based; conditions: ratio SDMA IC50 wt / MTAPdel
Listed next: entries and their corresponding Selectivity wt/MTAPdel.

- Compound: "CN(C(=O)C(=O)Nc1cnc(N)c2c1cnn2C)[C@@H]1COCc2nc(C(F)(F)F)ccc21"
  Selectivity wt/MTAPdel: 2722
- Compound: "[2H]C([2H])([2H])N(C(=O)C(=O)Nc1cnc(N)c2c1cnn2C)[C@@H]1COc2cc(SC(F)(F)F)ccc21"
  Selectivity wt/MTAPdel: 853
- Compound: "[2H]C([2H])([2H])N(C(=O)C(=O)Nc1cnc(N)c2c1cnn2C)[C@@H]1COc2cc(C(F)(F)F)ccc21"
  Selectivity wt/MTAPdel: 1490
- Compound: "CN(C(=O)C(=O)Nc1cnc(N)c2c1cnn2C)[C@@H]1COc2cc(C(F)(F)F)ccc21"
  Selectivity wt/MTAPdel: 3054
- Compound: "CN(C(=O)C(=O)Nc1cnc(N)c2c1cnn2C)[C@@H]1COc2cc(SC(F)(F)F)ccc21 [Compound P29a]"
  Selectivity wt/MTAPdel: 670
- Compound: "Cc1cc(NC(=O)C(=O)N2C[C@@H](C)CC[C@@H]2c2ccc3scnc3c2)cnc1N [TNG908, reference compound]"
  Selectivity wt/MTAPdel: 850

###

test: Mouse pharmacokinetics testing; type: in vivo, CD1 female mice; details: mouse; PO (10 mg/kg), CD1 female mice, plasma; read-out: Cmax
Observed Property: Cmax (ng/mL)

- Compound: "C[C@H]1CC[C@H](c2ccc3scnc3c2)N(C(=O)C(=O)Nc2cnc(N)c3c2cnn3C)C1 [Compound P3b]"
  Units Label: "ng/mL"
  Endpoint Value: 883

###

test: Liver microsomal stability assay, mouse; type: in vitro ADME; conditions: mouse liver microsomes 0.5 mg/mL, compound 1 µM, NADPH 1 mM, 60 minute

- Smiles String: "CN(C(=O)C(=O)Nc1cnc(N)c2c1cnn2C)[C@@H]1COc2cc(C(F)(F)F)ccc21"
  CLint scaled at 1 µM (mL/min/kg): 55
- Smiles String: "[2H]C([2H])([2H])N(C(=O)C(=O)Nc1cnc(N)c2c1cnn2C)[C@@H]1COc2cc(C(F)(F)F)ccc21"
  CLint scaled at 1 µM (mL/min/kg): 46.2
- Smiles String: "CN(C(=O)C(=O)Nc1cnc(N)c2c1cnn2C)[C@@H]1COCc2nc(C(F)(F)F)ccc21"
  CLint scaled at 1 µM (mL/min/kg): 10
- Smiles String: "[2H]C([2H])([2H])N(C(=O)C(=O)Nc1cnc(N)c2c1cnn2C)[C@@H]1COc2cc(SC(F)(F)F)ccc21"
  CLint scaled at 1 µM (mL/min/kg): 242

###

assay: Membrane permeability: Caco-2 assay; format: in vitro ADME; details: human; Caco-2, Efflux Ratio = Papp(B-A)/Papp(A-B)
Listed next: entries and their corresponding efflux ratio.

- Compound: "CN(C(=O)C(=O)Nc1cnc(N)c2c1cnn2C)[C@@H]1COCc2nc(C(F)(F)F)ccc21"
  efflux ratio: 2.9
- Compound: "CN(C(=O)C(=O)Nc1cnc(N)c2c1cnn2C)C1COc2cc(C(F)(F)F)ccc21 (centres unmarked) [Compound P2]"
  efflux ratio: 1.5

###

Listed next: entries and their corresponding Papp A→B.
test: in vitro; settings: dog, MDCK-MDR1, pH 7.4
Observed Property: Papp A→B (×10⁻⁶ cm/s)

- Compound: "CN(C(=O)C(=O)Nc1cnc(N)c2c1cnn2C)[C@@H]1COc2cc(C(F)(F)F)ccc21 [Compound P2a]"
  Endpoint Value: 14.8
- Compound: "CCN(C(=O)C(=O)Nc1cnc(N)c2c1cnn2C)[C@@H]1COCc2nc(C(F)(F)F)ccc21 [Compound P28]"
  Endpoint Value: 10.7
- Compound: "CN(C(=O)C(=O)Nc1cnc(N)c2c1cnn2C)[C@@H]1COc2cc(SC(F)(F)F)ccc21 [Compound P29a]"
  Endpoint Value: 7.6
